Reference for the values: PubChem BioAssay (NCI)

- Test system: OVCAR-8 ovarian
- methodDescription: NCI-60 one-dose screen, 48 h
- details: 10 µM unless noted
About 83,000 compounds went through this panel and 20% of them were active in at least one assay; those are over-represented in the sample as a whole. Activity calls are given as the source filed them. Rule for the calls: active = growth percent below 10; inactive = the rest.
Outcomes: active, inactive

{"compound": "CN(C)CCCNc1nc(-c2cccc(C(Cl)(Cl)Cl)c2)nc(C(Cl)(Cl)Cl)n1", "label": "inactive"}
{"compound": "O=C(CSc1nc2ccc([N+](=O)[O-])cc2[nH]1)Nc1cccc(Cl)c1", "label": "inactive"}
{"compound": "C#CC(OC(=O)N(C)C)(c1ccccc1)c1ccc(F)cc1 (stereo not given)", "label": "inactive"}
{"compound": "COc1ccc(C=C2c3ccccc3-c3ccccc32)cc1", "label": "inactive"}
{"compound": "CC(C)C1=NOC(=O)C1=Cc1cn(-c2ccccc2)nc1-c1ccccc1", "label": "inactive"}
{"compound": "COc1ccc(NC(=S)NNc2ccc(-c3ccc(OC)c(OC)c3)nn2)cc1", "label": "inactive"}
{"compound": "CC(C)=CC/C=C(/C)[C@H]1CC[C@]2(C)[C@@H]1CC[C@@H]1[C@@]3(C)CCCNC(C)(C)[C@@H]3CC[C@]12C", "label": "active"}
{"compound": "CCCC(NC(=O)OCc1ccccc1)C(=O)O (stereo not given)", "label": "inactive"}
{"compound": "O=C(NCCCNC(=O)OCc1ccc2c(Br)cc(Br)c(O)c2n1)OCc1ccc2c(Br)cc(Br)c(O)c2n1", "label": "active"}
{"compound": "CCN(CC)CCCC(C)Nc1ccnc2cc(Cl)c(SCc3ccccc3)cc12 (stereo not given)", "label": "active"}

###

- Test system: SK-MEL-5 melanoma
- methodDescription: NCI-60 one-dose screen, 48 h
- details: 10 µM unless noted
Compounds without any hit were thinned out: in the full panel of roughly 83,000, 20% have a hit. Activity calls are given as the source filed them. How the source made its calls: active means growth percent below 10; inactive means the rest.
Outcomes: 1.0 = active, 0.0 = inactive

{"compound": "O=[N+]([O-])c1cc([N+](=O)[O-])c(NN=C(c2ccc(O)cc2)c2ccc(O)cc2)cc1Cl", "label": 0.0}
{"compound": "COc1ccc2nc3cc(Cl)ccc3c(Nc3ccc(O)c(CN4CCCC4)c3)c2c1", "label": 0.0}
{"compound": "CC1(C)[C@@H](NOCCCN)CC[C@]2(C)[C@H]3C(=O)C=C4[C@@H]5C[C@](C)(C(=O)O)CC[C@]5(C)CC[C@@]4(C)[C@]3(C)CC[C@@H]12", "label": 1.0}
{"compound": "Clc1ccc(/C=N/Nc2nc3ccccc3s2)c(Cl)c1", "label": 0.0}
{"compound": "CCN1c2ccccc2C(Cl)(c2ccc(N(C)C)cc2)c2ccccc21", "label": 0.0}
{"compound": "O=C(CSc1nccc(Nc2ccc(S(=O)(=O)Nc3ccccn3)cc2)n1)c1ccc(Cl)cc1", "label": 0.0}
{"compound": "Cc1ccc(NC(=O)N[C@@H](Cc2cc(F)cc(F)c2)C(=O)N[C@@H]2C(=O)N3CCC[C@H]3C(=O)N3CCCC[C@H]3C(=O)N[C@@H](C)C(=O)N3C[C@H](C)C[C@H]3C(=O)O[C@H]2C)cc1", "label": 0.0}
{"compound": "CC1Cc2c(Cl)ncnc2N(C)c2ccc(O)cc21 (stereo not drawn)", "label": 1.0}
